- Tested on: murine fibroblasts L929
- assay: Cytotoxicity, MTT method, L929
- Format: cell-based
- measurement context: Mus musculus, L929, 120 h; MTT, 5 days incubation; na: not active; read-out: IC50 L929
# maps each entry to its pIC50
Note on pIC50: it is the negative log10 of concentration, concentration in mol/L.

Worked examples follow.
* C/C=C/C(=O)O[C@H]1C2=C(O[C@@H](/C=C/C)[C@@H]1O)[C@@](C)(OC(=O)/C=C/C)OC2=O | 4.30
* C=C1OC(=O)C2=C1O[C@@H](/C=C/C)[C@H](OC(=O)/C=C/c1ccccc1)[C@H]2OC(=O)/C=C/c1ccccc1 | 5.25
* C/C=C/C(=O)O[C@H]1C2=C(O[C@@H](/C=C/C)[C@@H]1O)[C@@](C)(OC)OC2=O | 4.21

In the following, a different molecule is considered.
// query Sample C=C(C)C(=O)O[C@H]1[C@H](/C=C/C)OC2=C(C(=O)O[C@]2(C)OC(=O)C2(C)CCC(C)=C(Cl)O2)[C@@H]1OC(=O)C(=C)C (stereo partly shown) — what was its pIC50?
// result 5.29

Sourced from paper PMC11931645
